- PROTOCOL SUMMARY: activity coefficient (dimensionless); of the first substance listed, at infinite dilution; xn = mol fraction of the nth substance listed
- CONDITION: 298.15 K; 100 kPa; Liquid; Chemical equilibration / Heterogeneous equilibration; x1 = 0
Note to self: values exactly at 100 are Y. So activity coefficient at or above 100 is Y, below is N.

INSERT INTO results (compound, qualitative_label) VALUES
  ('O [water] + Clc1ccccc1', 'Y'),
  ('O [water] + COc1ccccc1', 'N'),
  ('O [water] + Brc1ccccc1', 'Y'),
  ('O [water] + COc1ccc(Br)cc1', 'Y'),
  ('O [water] + FC(F)(F)c1ccccc1', 'Y'),
  ('O [water] + CCOc1ccccc1', 'Y');
